target: human LPAR1 (Homo sapiens)
Construct: host or cells: TangoEDG2-bla U2OS cells
assay-name: Arrestin assay (Arrestin Reporter EDG2-bla U2OS), inhibition of LPA-stimulated signal
Type: cell-based
test-conditions: TangoEDG2-bla U2OS cells expressing human LPAR1; 0.25 μM LPA; read-out: Arrestin Reporter EDG2-bla U2OS Human Merged IC50
readout-kind: IC50 (nM)
Give just the numeric value; nM need not be written.

Fill in the blank: the reported IC50 of CC(C)c1ccnn1C1(C(=O)Nc2ccc(Cl)cc2OC(F)F)CCN(C2CC(NC(=O)OC(C)(C)C)(C(=O)O)C2)CC1 (centres unmarked) is ____.
49.3

Consider the molecule shown here: "CC(C)c1ccnn1C1(C(=O)Nc2ccc(Cl)cc2OC(F)F)CCN(C[C@]2(C(=O)O)CCOC(C)(C)C2)CC1" What is its recorded IC50?
31

Field request: IC50 | item: "CC(C)c1ccnn1C1(C(=O)Nc2ccc(Cl)cc2OC(F)F)CCN(CC2(CC(=O)O)CCOCC2)CC1"
56.6

Can you share its IC50? I mean this molecule: "CC(C)c1ccnn1C1(C(=O)Nc2ccc(Cl)cc2OC(F)F)CCN(Cc2nc(C(=O)O)cs2)CC1"
14.6

Which IC50 value is on record for "CC(C)c1c(F)cnn1C1(C(=O)Nc2ccc(Cl)cc2OC(F)F)CCN(C[C@H](C(=O)O)C2CCOCC2)CC1" ?
25.7

###

target: human LPAR1 (Homo sapiens, UniProt Q92633)
Construct: host or cells: TangoEDG2-bla U2OS cells
Sequence (Q92633 whole entry): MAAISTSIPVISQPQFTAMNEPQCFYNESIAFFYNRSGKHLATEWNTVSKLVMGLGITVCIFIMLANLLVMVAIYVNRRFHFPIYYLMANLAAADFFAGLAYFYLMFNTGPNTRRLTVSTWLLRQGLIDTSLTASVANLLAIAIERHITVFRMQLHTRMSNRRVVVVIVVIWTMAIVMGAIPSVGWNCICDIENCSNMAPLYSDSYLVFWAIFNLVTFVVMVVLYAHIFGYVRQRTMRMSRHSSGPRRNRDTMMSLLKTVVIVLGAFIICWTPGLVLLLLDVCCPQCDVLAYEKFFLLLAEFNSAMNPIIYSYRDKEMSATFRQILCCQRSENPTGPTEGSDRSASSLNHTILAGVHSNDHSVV
assay-name: Arrestin assay (Arrestin Reporter EDG2-bla U2OS), inhibition of LPA-stimulated signal
Type: cell-based
test-conditions: TangoEDG2-bla U2OS cells expressing human LPAR1; 0.25 μM LPA; read-out: Arrestin Reporter EDG2-bla U2OS Human Merged IC50
readout-kind: IC50 (µM)
Please give a number only; it is taken to be in µM.

Consider the molecule shown here: COCC(OC)C(=O)N1CCC(CN2CCC(C(=O)Nc3ccc(Cl)cc3OC(F)F)(n3nccc3C(C)C)CC2)(C(=O)O)CC1 (stereo not shown) What is its recorded IC50?
0.0912

Report IC50 for "CCOC(=O)N1CC(CN2CCC(C(=O)Nc3ccc(Cl)cc3OC(F)F)(n3nccc3C(C)C)CC2)(C(=O)O)C1" please.
0.122

What does the data say about its IC50? Entry: COc1ccc(C(C)(CN2CCC(C(=O)Nc3ccc(Cl)cc3OC(F)F)(n3nccc3C(C)C)CC2)C(=O)O)cc1 (stereo not shown)
0.0641

Item COCOCC(CN1CCC(C(=O)Nc2ccc(Cl)cc2OC(F)F)(n2nccc2C(C)C)CC1)C(=O)O (stereo not shown) has what recorded IC50?
0.0769

May I ask what IC50 has been recorded for "CC(C)c1ccnn1C1(C(=O)Nc2ccc(Cl)cc2OC(F)F)CCN(CC2(C(=O)O)CCN(C(=O)O[C@@H]3CCOC3)CC2)CC1" ?
0.0755

Which IC50 value is on record for "COC1CN([C@@H](CN2CCC(C(=O)Nc3ccc(Cl)cc3OC(F)F)(n3nccc3C(C)C)CC2)C(=O)O)C1" ?
0.123

Requested read-out: IC50. Entry: CC(C)c1ccnn1C1(C(=O)Nc2ccc(Cl)cc2OC(F)F)CCN(CC(CN2CCOCC2)C(=O)O)CC1 (stereo not shown)
0.113
